target-desc: Proteasome subunit beta (Trypanosoma cruzi)
procedure-details: Trypanosoma cruzi proteasome chymotrypsin-like activity (TcProtChymo) assay. Further: in the data most compounds retested in dose-response had high values.
Type: functional
Parameters: scale not given: direction of the effect not stated beside the values
applied-conditions: 9.37 µM
endpoint-label: Percent Effect (%)

1. COc1ccc(CNC(C)c2ccc3[nH]c(=O)[nH]c3c2)cc1 (stereo not drawn) : 0.36
2. CCc1cc(NCCc2ccc(O)cc2)n2nccc2n1 : 9.58
3. CCC(C)[C@H](NC(=O)c1cc(Br)ccc1-n1cnnn1)C(=O)OC (stereo partly drawn) : 2.03
4. CC(=O)N(Cc1noc(C2CC2)n1)C1CCN(Cc2cccnc2)C1 (stereo not drawn) : 2.51
5. Cc1cccc(CN2CCc3ncnc(C)c3CC2)n1 : 13.4
6. O=C(NC1(c2cccc(F)c2)CCOCC1)c1ccoc1 : 1.33
7. Cn1ccc(CN2CCC(c3ccccc3)CC2)cc1=O : 8.11
8. CC(C)N(CC(N)=O)Cc1csc(COc2ccc(F)cc2)n1 : 8.76
9. CC(C)c1nnc2ccc(N3CCC(C(N)=O)CC3)nn12 : 3.14
10. Cc1noc([C@@H]2CC[C@@H]3[C@@H](CCN3S(=O)(=O)C3CC3)O2)n1 : 17.2
11. COCC1CCN(c2cc(C3CN(C)CCO3)nc(C)n2)CC1 (stereo not drawn) : 2.38
12. CSCCCN1CCn2nc(CNC(C)=O)cc2C1 : 8.16
13. CC(C)[C@H](NC(=O)NC1CCS(=O)(=O)C1)C(=O)NCc1cccnc1 (stereo partly drawn) : 7.95
14. Cc1nc2cc(C(=O)N3CCCC(n4cncn4)C3)ccc2n1C (stereo not drawn) : -5.21
15. CCOc1ccc(Cl)c(C(=O)N2CCN(c3cnccn3)CC2)n1 : 15.5
16. CS(=O)(=O)N1CCC(C(=O)NC(Cc2ccsc2)c2nccs2)CC1 (stereo not drawn) : 2.65
17. Cc1nc(C)n(C2CCCN(C(=O)c3cnc[nH]3)C2)n1 (stereo not drawn) : -2.7
18. Cc1n[nH]cc1C(=O)N1CCCC(n2nnc3cc(F)ccc32)C1 (stereo not drawn) : 11.7
19. Cc1nc(CN(C)C2CCN(Cc3sc(C)nc3C)C2)no1 (stereo not drawn) : 20.6
20. COCCNS(=O)(=O)c1cccc2c1CN(C(=O)c1ccccc1)CC2 : 4.39
21. Cc1nc(CN2C[C@@H]3CN(C(=O)c4cnccn4)C[C@@H]3C2)cs1 : 7.45
22. CCCc1nc(CN2CCN(Cc3noc(CCC)n3)CC2)no1 : 10.5
23. Cn1ccc(C(=O)N2CCCC(Cc3cccc4ncccc34)C2)n1 (stereo not drawn) : 7.33
24. CCc1ncc(CN(C)C(=O)Nc2cccnc2N2CCCC2)s1 : 10.4
25. O=C1N(c2cccc(Cl)c2)Cc2nc(=O)n(Cc3cccc(F)c3)n21 : 6.1
26. CC1(C)CC(N(Cc2ccccc2)Cc2cccnc2)CC(C)(C)N1 : 7.8
27. Cc1cnc(N2CCCC3(CCN(Cc4csc(C)n4)C3=O)C2)nc1 (stereo not drawn) : 5.64
28. CN(C)CC1CN(c2ncnc3[nH]ccc23)CCO1 (stereo not drawn) : 13.9
29. Cc1nn(C)c(N2CCOCC2)c1CNC1CCOc2ccccc21 (stereo not drawn) : 2.54
30. Cc1cc(C[S+]([O-])CC(=O)Nc2c(C)cccc2C)no1 (stereo not drawn) : 2.03
31. CCc1c(C)nc2n(c1=O)CC(C(=O)Nc1nccs1)CS2 (stereo not drawn) : 7.31
32. COCC(NC(=O)c1ccc[nH]1)c1cccc(C(F)(F)F)c1 (stereo not drawn) : 4.79
33. Cc1ncccc1Oc1nccnc1C1CCN(C(C)C)CC1 : 2.65
34. Nc1nc(CN2CCOC(Cn3cncn3)C2)nc2ccccc12 (stereo not drawn) : -7.18
35. Cc1nc(C)n(CC2CCCN2CC(=O)NCc2ccco2)n1 (stereo not drawn) : 13.8
36. Cc1cc(C)n(C2CN(CC(O)COc3ccc(F)cc3)C2)n1 (stereo not drawn) : -0.169
37. CN(C)S(=O)(=O)N1CCCC1CC(=O)c1cccs1 (stereo not drawn) : -0.862
38. O=C(CCc1nccs1)N1CCCC(N2CCNC2=O)C1 (stereo not drawn) : 8.16
39. CC(NC(=O)NCc1ccoc1)c1ccc2c(c1)CCC(=O)N2 (stereo not drawn) : 28.6
40. CN(Cc1ccco1)Cc1ccccc1CNC(=O)c1ccncc1 : 12.8
41. Cc1cccc(COC[C@H]2CC[C@H]3[C@H](CCN3C(=O)CC3CC3)O2)n1 : 6.96
42. O=S1(=O)CCCN1Cc1coc(-c2cccs2)n1 : 23.3
43. Cc1nccn1CCCC(=O)N1CCC(Nc2cccnn2)CC1 : 3.06
44. O=C1CCC2(CCN(Cc3cc(F)cc(F)c3)CC2)CN1CCO : 9.12
45. Cc1cc(C[C@@H]2CCC[C@H]2NCc2ccccc2C(F)(F)F)on1 : 6.4
46. Cc1cccnc1NC(=O)CC1(Cn2cnnn2)CCCCC1 : 9.11
47. CCn1c(CN(C)C)nnc1C1CCN(Cc2cccc(OC)c2)CC1 : 16
48. CC[C@@H]1N(CC2CC2)CCC[C@]12CCC(=O)N2CCOC : 5.47

* * *

target-desc: Protein translocase subunit SecA (Escherichia coli (strain K12)) (UniProt P10408)
Sequence (P10408 whole entry): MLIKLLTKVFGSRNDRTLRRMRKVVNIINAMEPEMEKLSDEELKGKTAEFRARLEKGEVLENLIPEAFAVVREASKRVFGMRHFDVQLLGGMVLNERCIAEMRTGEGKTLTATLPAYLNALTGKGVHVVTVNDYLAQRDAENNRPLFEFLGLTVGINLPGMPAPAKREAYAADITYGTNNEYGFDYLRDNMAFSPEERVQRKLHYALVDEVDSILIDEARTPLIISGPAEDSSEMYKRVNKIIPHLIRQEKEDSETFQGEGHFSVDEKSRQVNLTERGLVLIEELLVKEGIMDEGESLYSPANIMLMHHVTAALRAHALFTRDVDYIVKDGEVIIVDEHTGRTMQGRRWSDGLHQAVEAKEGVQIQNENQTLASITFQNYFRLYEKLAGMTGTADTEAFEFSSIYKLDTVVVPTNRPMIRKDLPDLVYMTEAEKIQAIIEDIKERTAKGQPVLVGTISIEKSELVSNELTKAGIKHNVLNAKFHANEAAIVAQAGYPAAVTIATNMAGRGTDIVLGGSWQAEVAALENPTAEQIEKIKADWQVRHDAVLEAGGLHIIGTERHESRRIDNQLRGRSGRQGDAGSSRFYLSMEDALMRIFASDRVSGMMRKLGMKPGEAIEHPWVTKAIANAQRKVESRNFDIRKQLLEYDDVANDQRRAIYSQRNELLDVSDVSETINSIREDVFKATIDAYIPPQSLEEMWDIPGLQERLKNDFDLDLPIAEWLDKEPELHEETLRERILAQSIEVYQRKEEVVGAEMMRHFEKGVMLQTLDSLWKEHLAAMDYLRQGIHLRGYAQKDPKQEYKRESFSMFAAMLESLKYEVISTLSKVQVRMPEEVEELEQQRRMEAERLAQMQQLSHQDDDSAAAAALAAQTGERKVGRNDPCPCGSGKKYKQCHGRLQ
procedure-details: Assay to Identify E. coli SecA ATPase Inhibitors
Format: functional
Parameters: scale not given: direction of the effect not stated beside the values
applied-conditions: 30 µM
Results with a measured potency or affinity are listed apart.
Catalogue of Percent Effect readings, one per entry.
endpoint-label: Percent Effect

1) Cc1nc(C2CCCN2C(=O)c2ccccc2)ncc1C(N)=O (configuration not stated) : -3.32%
2) CN(C)CCN1CCOCC2(C1)CN(Cc1ccsc1)CCO2 (configuration not stated) : -4.22%
3) CCc1ncc2c(n1)CN(Cc1nnc(C)o1)CC2 : -0.796%
4) N#Cc1ccc(C(=O)N2CCn3c(Cn4cccn4)cnc3C2)cc1 : -4.62%
5) CC(C)COCc1cncc2c1CCN(Cc1cnn(C)c1)C2 : -5.06%
6) Cc1cccc(OCCC(=O)N2CCN(S(=O)(=O)N(C)C)CC2)c1C : 1.47%
7) CCOCC(O)CN1CCN(C(=O)c2cnc3n[nH]c(C)c3c2)CC1 (configuration not stated) : -4.29%
8) CC(O)CC(C)(C)CNC(=O)NCc1cccc(-n2cncn2)c1 (configuration not stated) : -3.57%
9) O=C(Nc1ccccc1)C1CN(CC2CC2)CC12CCOCC2 (configuration not stated) : -1.55%
10) CN1CCN(Cc2ccccc2CNC(=O)c2ccc(Br)cc2F)CC1 : -2.05%
11) Cc1c[nH]c(CN(C)c2nc(C3CCCC3)nc3c2cnn3C)n1 : -3.47%
12) N#CCSCCCN1CCN(C(=O)c2ccc(Cl)cc2)CC1 : -6.76%

* * *

Catalogue of Percent Effect readings, one per entry.
target-desc: Sialic acid-binding Ig-like lectin 9 (Homo sapiens)
procedure-details: Hs-Siglec9 ALPHAscreen SOP 20170721
Design: scale not given: direction of the effect not stated beside the values
applied-conditions: 10 µM
endpoint-label: Percent Effect (%)

1) CNC(=O)NC(=O)Cn1cc(-c2ccccc2)cn1 : 5.24
2) CCc1nc(C(=O)NCc2ccc(N3CCNC(=O)C3)c(F)c2)c[nH]1 : 31.7
3) Fc1ccc(CN2CCC(c3nccnc3-n3ccnc3)CC2)cc1 : 0.663
4) Cc1csc(N2CCN(C(=O)CCn3cncn3)CC2)n1 : 11.1
5) Cc1noc([C@@]23CCO[C@@H]2CCN(CC2CCOCC2)C3)n1 : 4.21
6) CC(COc1ccccc1)NCc1nc(-c2cccnc2)no1 (stereo unspecified) : 0.164

* * *

Catalogue of Percent Effect readings, one per entry.
target-desc: AMP-activated protein kinase, AMPK (Homo sapiens) (UniProt P54646+O43741+P54619+Q9UGJ0+Q9Y478+Q13131+Q9UGI9)
procedure-details: AMP-dependent Kinase enzyme assay. An in vitro enzyme assay that detects ADP turnover that is directly proportional to AMPK activity. This uses naive AMPK that is activated during the assay with MK-8722
Format: functional
Design: scale not given: direction of the effect not stated beside the values
applied-conditions: 30 µM
endpoint-label: Percent Effect (%)

1. CCOc1ccccc1C(=O)NS(=O)(=O)c1ccc2c(c1)OCCCO2 : -3.19
2. COc1ccc(CNC(=O)NCc2c(C)cc(C)[nH]c2=O)cc1 : -3.13
3. Cc1noc(CN2CCN(CC(C)O)CC2)n1 (stereo unspecified) : -4.38
4. CN1C(=O)CC(C(=O)O)C12CCN(Cc1ccc(F)cc1Cl)CC2 (stereo unspecified) : -7.2
5. Cn1cccc1C(=O)Nc1cc(F)ccc1OCC1CCCO1 (stereo unspecified) : 2.66
6. CC(C)CN1CCN(Cc2nc3ccccc3[nH]2)[C@H]2CS(=O)(=O)C[C@H]21 : 1.86
7. CC(C(=O)NCc1cccc(N2CC=CC2)c1)n1cccn1 (stereo unspecified) : 3.53
8. CC(C)(C)c1nc(CN2CCC(c3nc4cc(Cl)ccc4o3)CC2)no1 : 3.19
9. Cc1ccc(-c2cc(CNC(=O)N3CCOC(C)C3)on2)cc1 (stereo unspecified) : 7.2
10. COc1ccccc1OCCC(=O)N1CCCC1Cn1cc(C)cn1 (stereo unspecified) : 5.75
11. CCC(C)[C@H](NC(=O)c1cc(Br)ccc1-n1cnnn1)C(=O)OC (stereo partly specified) : -6.14
